measuredTarget: human alpha-2A-adrenoceptor (Homo sapiens)
pKi: −log10 of the molar value.
assayEndpoint: pKi

>>> valueobserved("COc1cccc(CNc2ccc(S(=O)(=O)Nc3nc(C)cc(C)n3)cc2)c1")
"< 5.29"
>>> valueobserved("Cc1cc(C)nc(NS(=O)(=O)c2ccc(NCc3ccccc3C)cc2)n1")
"< 5.35"
>>> valueobserved("Cc1cc(C)nc(NS(=O)(=O)c2ccc(NCc3ccc4ccccc4c3)cc2)n1")
"< 5.00"
>>> valueobserved("Cc1cc(C)nc(NS(=O)(=O)c2ccc(NCc3c(Cl)cccc3Cl)cc2)n1")
5.70
>>> valueobserved("COc1ccccc1CCNc1ccc(S(=O)(=O)Nc2nc(C)cc(C)n2)cc1")
5.66
>>> valueobserved("CCn1cc(CNc2ccc(S(=O)(=O)Nc3nc(C)cc(C)n3)cc2)c2ccccc21")
"< 5.37"

====

measuredTarget: human alpha-2A-adrenoceptor (Homo sapiens)
Construct: expressed in transfected cells
Sequence (P08913 1-465): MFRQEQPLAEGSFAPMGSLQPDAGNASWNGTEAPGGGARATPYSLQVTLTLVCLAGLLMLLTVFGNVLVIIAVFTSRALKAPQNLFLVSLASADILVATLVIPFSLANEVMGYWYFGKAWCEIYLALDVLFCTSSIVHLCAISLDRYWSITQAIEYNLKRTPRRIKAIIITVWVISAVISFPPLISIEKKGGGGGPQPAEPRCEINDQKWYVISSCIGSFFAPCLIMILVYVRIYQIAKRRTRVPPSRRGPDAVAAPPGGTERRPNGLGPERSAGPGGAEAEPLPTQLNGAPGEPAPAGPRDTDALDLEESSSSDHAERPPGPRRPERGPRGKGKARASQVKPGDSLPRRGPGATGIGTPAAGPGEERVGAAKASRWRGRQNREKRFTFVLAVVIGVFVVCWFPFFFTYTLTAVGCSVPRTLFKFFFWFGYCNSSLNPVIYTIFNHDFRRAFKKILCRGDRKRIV
assayName: Antagonist activity: inhibition of epinephrine-stimulated 35S-GTPγS binding
Assay type: biochemical
testParameters: Mean ± SEM; CHO cell membranes, human α2A; 5 μM epinephrine; read-out: KB alpha-2A antagonist effect
assayEndpoint: Kb

>>> valueobserved("COc1ccccc1CCNc1ccc(S(=O)(=O)Nc2nc(C)cc(C)n2)cc1")
"3.2 µM"
>>> valueobserved("COc1cccc(CNc2ccc(S(=O)(=O)Nc3nc(C)cc(C)n3)cc2)c1")
"7.9 µM"
>>> valueobserved("CCn1cc(CNc2ccc(S(=O)(=O)Nc3nc(C)cc(C)n3)cc2)c2ccccc21")
"8.7 µM"
>>> valueobserved("Cc1cc(C)nc(NS(=O)(=O)c2ccc(NCc3c(Cl)cccc3Cl)cc2)n1")
"5.4 µM"
>>> valueobserved("Cc1cc(C)nc(NS(=O)(=O)c2ccc(NCc3ccccc3C)cc2)n1")
"14.5 µM"

====

Overview of recorded Kb for various molecules
measuredTarget: human alpha-2B-adrenoceptor (Homo sapiens, UniProt P18089)
Construct: expressed in transfected cells
Sequence (P18089 whole entry): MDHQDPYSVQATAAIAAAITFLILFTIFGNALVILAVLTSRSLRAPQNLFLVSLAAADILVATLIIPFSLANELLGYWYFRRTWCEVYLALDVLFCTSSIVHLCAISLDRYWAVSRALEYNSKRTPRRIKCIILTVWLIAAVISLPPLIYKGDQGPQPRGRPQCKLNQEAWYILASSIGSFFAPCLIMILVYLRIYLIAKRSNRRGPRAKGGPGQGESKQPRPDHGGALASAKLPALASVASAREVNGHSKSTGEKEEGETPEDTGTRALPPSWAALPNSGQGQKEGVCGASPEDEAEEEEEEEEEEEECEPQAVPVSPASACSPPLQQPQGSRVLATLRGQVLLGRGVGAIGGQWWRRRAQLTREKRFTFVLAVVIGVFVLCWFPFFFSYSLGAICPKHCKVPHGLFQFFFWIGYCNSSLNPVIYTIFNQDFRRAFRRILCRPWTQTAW
assayName: Antagonist activity: inhibition of epinephrine-stimulated 35S-GTPγS binding
Assay type: biochemical
testParameters: Mean ± SEM; CHO cell membranes, human α2B; 15 μM epinephrine; read-out: KB alpha-2B antagonist effect
assayEndpoint: Kb (nM)

>>> valueobserved("COc1cccc(CNc2ccc(S(=O)(=O)Nc3nc(C)cc(C)n3)cc2)c1")
29
>>> valueobserved("CCn1cc(CNc2ccc(S(=O)(=O)Nc3nc(C)cc(C)n3)cc2)c2ccccc21")
240
>>> valueobserved("Cc1cc(C)nc(NS(=O)(=O)c2ccc(NCc3ccccc3C)cc2)n1")
75
>>> valueobserved("COc1ccccc1CCNc1ccc(S(=O)(=O)Nc2nc(C)cc(C)n2)cc1")
86
